System: EKVX NSCLC
method_summary: NCI-60 one-dose screen, 48 h (100 = growth as untreated, 0 = no growth, -100 = all killed)
measurement_conditions: 10 µM unless noted
About 83,000 compounds went through this panel and 20% of them were active in at least one assay; those are over-represented in the sample as a whole.
outcome_measure: growth (%)
Write it as a number; the unit % goes unstated.

{"molecule": "CC(C)NS(=O)(=O)c1cccc(-c2ccc3c(=O)n(CCCN)c4c(c3c2)C(=O)c2ccccc2-4)c1", "growth (%)": 100}
{"molecule": "Cc1[nH]c(N=Nc2ccccc2)nc1N=Nc1ccccc1", "growth (%)": 20.5}
{"molecule": "Nc1cccc(C(=O)Nc2ccc3c(O)c(N=Nc4ccc(N=Nc5ccc(S(=O)(=O)O)cc5)cc4)c(S(=O)(=O)O)cc3c2)c1", "growth (%)": 103}
{"molecule": "C=C(C)[C@@H]1CC[C@]2(C(N)=O)CC[C@]3(C)[C@H](CC[C@@H]4[C@@]5(C)CCCNC(C)(C)[C@@H]5CC[C@]43C)[C@@H]12", "growth (%)": 87.5}
{"molecule": "COc1cc2nc3c(=O)n(CCN(C)C)cnn3c(=O)c2cc1OC", "growth (%)": 95.7}
{"molecule": "Cc1ccc(C(=O)/C(=C/c2ccc([N+](=O)[O-])cc2)S(=O)Cc2ccccc2)cc1 (stereo not drawn)", "growth (%)": 30.3}
{"molecule": "COC(=O)c1nc(-c2ccccc2)oc1S(=O)(=O)n1nc(C)cc1N", "growth (%)": 87.8}

Suppose we examine the molecule `Cc1cc(C)c2nc(Nc3nc(C)c(C)c(=O)[nH]3)nc(C)c2c1` ; what growth value has been reported? 12.4

---

Test system: BT-549 breast
method_summary: NCI-60 one-dose screen, 48 h (100 = growth as untreated, 0 = no growth, -100 = all killed)
measurement_conditions: 10 µM unless noted
Compounds without any hit were thinned out: in the full panel of roughly 83,000, 20% have a hit.
Kindly apply the following: met if growth is less than 50%, not met in every other case.

Here are 4 compounds together with their reported answers.
{"smiles_code": "c1ccc2nc(N3CCOCC3)c(N3CCCCC3)nc2c1", "category_label": "not met"}
{"smiles_code": "O=C1c2ccccc2C(=O)c2c1oc1c2c(=O)[nH]c2ccc(Cl)cc21", "category_label": "met"}
{"smiles_code": "Nc1n[nH]c2cccc(C#Cc3cccc(NC(=O)c4cc(N5CCOCC5)cc(C(F)(F)F)c4)c3)c12", "category_label": "not met"}
{"smiles_code": "CNCc1cccc2c1OCCOCCOCCN(CCN1CCOCC1)S(=O)(=O)c1ccc(cc1)-c1cnc(N)c(n1)C(=O)N2", "category_label": "met"}

# input for lookup
Answer whether the compound `O=Cc1[nH]c(Sc2ccccc2)c2ccccc12` has growth strictly less than 50% not met

---

System: UACC-257 melanoma
method_summary: NCI-60 one-dose screen, 48 h
measurement_conditions: 10 µM unless noted
This is part of a sample that, as a whole, favours compounds with a hit. Of some 83,000 tested, about 20% had one in any assay. Active and inactive are the calls of the source. Rule for the calls: active = growth percent below 10; inactive = the rest.
Allowed answers: t = active, f = inactive

{"compound": "C=C(C)[C@@H]1CC[C@]2(C(N)=O)CC[C@]3(C)[C@H](CC[C@@H]4[C@@]5(C)CCCNC(C)(C)[C@@H]5CC[C@]43C)[C@@H]12", "assayed_system": "UACC-257 melanoma", "category_label": "f"}
{"compound": "CCCCC(=O)Nc1c(C(=O)Nc2ccccc2)sc2nc3c(cc12)C(OC(=O)CCCC)CCC3 (centres undefined)", "assayed_system": "UACC-257 melanoma", "category_label": "f"}
{"compound": "Cc1cccc(C)c1Nc1nnc(-c2ccc(F)cc2)o1", "assayed_system": "UACC-257 melanoma", "category_label": "f"}
{"compound": "COc1ccc(N(C)c2nc(Cl)nc3ccn(C)c23)cc1", "assayed_system": "UACC-257 melanoma", "category_label": "f"}
{"compound": "C#C[C@@]1(O)[C@@H](CO)O[C@@H](n2cc(F)c3c(N)ncnc32)[C@@H]1O", "assayed_system": "UACC-257 melanoma", "category_label": "t"}
{"compound": "CN(C)CCCn1c2c(c3cc(-c4cccc(S(N)(=O)=O)c4)ccc3c1=O)C(=O)c1ccccc1-2", "assayed_system": "UACC-257 melanoma", "category_label": "f"}
{"compound": "COc1ccccc1C(=O)/C=C/c1cc2cccc(OC)c2[nH]c1=O", "assayed_system": "UACC-257 melanoma", "category_label": "f"}
{"compound": "COc1cccc(NC(=O)Nc2ccc(Nc3ncnc4[nH]c(C)c(C)c34)cc2)c1", "assayed_system": "UACC-257 melanoma", "category_label": "f"}
{"compound": "CCOC(=O)c1c(C)nc2c(c1N)CC(=O)N2CCc1ccccc1", "assayed_system": "UACC-257 melanoma", "category_label": "f"}
{"compound": "O=C(CSC(=S)N1CCCCC1)Nc1ccccc1", "assayed_system": "UACC-257 melanoma", "category_label": "f"}

What outcome does the record of this test show for COc1ccc(-c2nc(C#N)c(NCC(c3ccco3)N3CCCC3)o2)cc1 (centres undefined) ? f

Do the same for `C[C@H]1[C@H](C)CC[C@]2(C(=O)OCCOCCOCC[P+](c3ccccc3)(c3ccccc3)c3ccccc3)CC[C@]3(C)C(=CC[C@@H]4[C@@]5(C)CC[C@H](OC(=O)C(Cl)Cl)C(C)(C)[C@@H]5CC[C@]43C)[C@H]12` please t

Do the same for `CCOCc1nc2ccccc2c(=O)[nH]1` please f

Do the same for `Cc1ccn2c3c(c(C(=O)O)c2c1)C(=O)c1ccccc1C3=O` please f
